# study-target: Rho (Escherichia coli, UniProt P0AG30, G51V)
# Construct: full-length WT rho in pET21b (pRS96; NdeI/XhoI), C-terminal His-tag kept, expressed in E. coli BL21(DE3) (I382N in BL21SI), Ni-NTA and heparin-Sepharose; homo-hexamer; 419 residues natural length
# Sequence (P0AG30 whole entry G51V): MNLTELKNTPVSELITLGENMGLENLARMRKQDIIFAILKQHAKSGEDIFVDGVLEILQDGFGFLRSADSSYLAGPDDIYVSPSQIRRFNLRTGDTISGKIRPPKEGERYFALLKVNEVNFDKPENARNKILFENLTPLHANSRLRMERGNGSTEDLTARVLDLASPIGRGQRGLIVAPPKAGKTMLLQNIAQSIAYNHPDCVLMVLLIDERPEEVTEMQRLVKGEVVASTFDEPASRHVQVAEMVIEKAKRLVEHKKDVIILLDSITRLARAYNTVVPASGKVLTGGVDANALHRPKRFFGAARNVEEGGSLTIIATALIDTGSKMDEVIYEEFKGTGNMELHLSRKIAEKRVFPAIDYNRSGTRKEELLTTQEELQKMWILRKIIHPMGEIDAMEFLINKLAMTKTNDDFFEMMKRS
# protocol-details: UV cross-linking of [γ-32P]ATP, SDS-PAGE, hyperbolic fit
# Assay type: binding
# measurement-context: read-out: Kd, app
# Description: UV cross-linking of [γ-32P]ATP, SDS-PAGE, hyperbolic fit on Rho
assay-readout: pKd
Reminder that pKd means the negative base-10 logarithm of the concentration expressed in mol/L.

Ask: Please give the documented pKd of Nc1ncnc2c1ncn2[C@@H]1O[C@H](COP(=O)(O)OP(=O)(O)OP(=O)(O)O)[C@@H](O)[C@H]1O
Result: 5.87
